Where do these numbers come from? They come from the NIST ThermoML archive (doi:10.1016/j.jct.2017.08.035).

Settings: 318.15 K, Maximal bubble pressure
Decision: surface tension liquid-gas compared against 40 mN/m; not below it gives class 1, below it gives class 0.

Is surface tension liquid-gas at least 40 mN/m? Consider `CCn1cc[n+](CCOC)c1.O=S(=O)([N-]S(=O)(=O)C(F)(F)F)C(F)(F)F`
class 0

Confirm if surface tension liquid-gas reported for the compound CCn1cc[n+](CCOC)c1.N#C[S-] [1-ethyl-3-(2-methoxyethyl)imidazolium thiocyanate] is 40 mN/m or above.
class 1

Quick check: does CC(=O)[O-].CCn1cc[n+](CCOC)c1 [1-ethyl-3-(2-methoxyethyl)imidazolium acetate] have surface tension liquid-gas greater than or equal to 40 mN/m?
class 1

Hello, I need to know if `CCn1cc[n+](CCOC)c1.O=S(=O)([O-])C(F)(F)F` has measured surface tension liquid-gas not below 40 mN/m. Thanks!
class 0

hey, is surface tension liquid-gas for this one >= 40 mN/m? CCn1cc[n+](CCOC)c1.N#C[N-]C#N [1-ethyl-3-(2-methoxyethyl)imidazolium dicyanamide]
class 1
